Listed binders paired with reported T cell MFI
target: T1, human CD33 (human, UniProt P20138 18-364); assay: flow cytometry, human primary T cells;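 also: binding of anti-CD33 antibodies at 10 ug/ml to human primary T cells, 1 h on ice, detected with PE-labelled secondary antibody, read as flow cytometry MFI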
T1 construct: CD33 on human primary dendritic cells, macrophages, monocytes and T cells and on CHO cells expressing recombinant human CD33; also called Siglec-3; hCD33
T1 sequence (P20138 18-364): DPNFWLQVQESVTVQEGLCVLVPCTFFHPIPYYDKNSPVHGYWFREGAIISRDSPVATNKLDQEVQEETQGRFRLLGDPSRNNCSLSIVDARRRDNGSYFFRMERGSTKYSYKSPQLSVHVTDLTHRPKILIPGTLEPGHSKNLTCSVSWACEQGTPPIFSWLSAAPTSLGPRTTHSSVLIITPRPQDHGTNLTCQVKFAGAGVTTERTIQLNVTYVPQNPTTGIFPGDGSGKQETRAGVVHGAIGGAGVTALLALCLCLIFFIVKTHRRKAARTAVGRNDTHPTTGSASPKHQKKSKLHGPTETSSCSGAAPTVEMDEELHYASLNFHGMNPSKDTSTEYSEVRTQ

Below are worked cases with known answers.
{"BINDER": "C-9 (antibody, V domains shown, human IgG1) VH: QLQLQESGPGLVKPSETLSLTCTVSGGSISSSSYYWGWIRQPPGKGLEWIGSIYYSGSTYYNPSLKSRVTISVDTSKNQFSLKLSSVTAADTAVYYCARESGFAGLDPWGQGTLVTVSS VL: EIVLTQSPGTLSLSPGERATLSCRASQSVSSSFLAWYQQKPGQAPRLLIYGASSRATGIPDRFSGSGSGTDFTLTISRLEPEDFAVYYCQQSEDWPTFGGGTKVEIK", "T cell MFI": 307}
{"BINDER": "C-26 (antibody, V domains shown, human IgG1) VH: QLQLQESGPGLVKPSETLSLTCTVSGGSISSNSYYWGWIRQPPGKGLEWIGSIYYSGSTYYNPSLKSRVTISVDTSKNQFSLKLSSVTAADTAVYYCARSPVYYDSSGYFQYYGMDVWGQGTTVTVSS VL: EIVLTQSPATLSLSPGERATLSCRASQSVSSYLAWYQQKPGQAPRLLIYDASKRATGIPARFSGSGSGTDFTLTISSLEPEDFAVYYCQQSIVWPPFTFGGGTKVEIK", "T cell MFI": 198}
{"BINDER": "C-34 (antibody, V domains shown, human IgG1) VH: EVQLVESGGGLVQPGGSLRLSCAASGFTFSSYWMSWVRQAPGKGLEWVANINQDGSEKYYVDSVKGRFTISRDNAKNSLYLQMNSLRAEDTAVYYCARDHGATGPDFDLWGRGTLVTVSS VL: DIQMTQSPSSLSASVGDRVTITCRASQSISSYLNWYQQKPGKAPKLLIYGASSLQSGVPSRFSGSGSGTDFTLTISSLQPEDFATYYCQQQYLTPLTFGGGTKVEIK", "T cell MFI": 216}
{"BINDER": "C-3 (antibody, V domains shown, human IgG1) VH: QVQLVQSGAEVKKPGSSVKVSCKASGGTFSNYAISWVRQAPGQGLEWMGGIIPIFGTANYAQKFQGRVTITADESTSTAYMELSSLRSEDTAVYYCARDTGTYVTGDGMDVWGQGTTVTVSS VL: EIVMTQSPATLSVSPGERATLSCRASQSVSSNLAWYQQKPGQAPRLLIYGASTRATGIPARFSGSGSGTEFTLTISSLQSEDFAVYYCQQYDVWPITFGGGTKVEIK", "T cell MFI": 262}
{"BINDER": "C-27 (antibody, V domains shown, human IgG1) VH: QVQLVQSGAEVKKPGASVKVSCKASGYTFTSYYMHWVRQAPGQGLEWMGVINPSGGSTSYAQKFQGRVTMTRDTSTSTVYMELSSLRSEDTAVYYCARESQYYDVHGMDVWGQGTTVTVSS VL: DIQMTQSPSSLSASVGDRVTITCRASQSISSYLNWYQQKPGKAPKLLIYAASSLQSGVPSRFSGSGSGTDFTLTISSLQPEDFATYYCQQHYDIPLTFGGGTKVEIK", "T cell MFI": 414}
{"BINDER": "C-68 (antibody, V domains shown, human IgG1) VH: QVQLQESGPGLVKPSQTLSLTCTVSGGSISSGGYYWSWIRQHPGKGLEWIGNIYYSGSTYYNPSLKSRVTISVDTSKNQFSLKLSSVTAADTAVYYCARDLPNSGSPGSDYFDYWGQGTLVTVSS VL: EIVLTQSPGTLSLSPGERATLSCRASQSVSSSYLAWYQQKPGQAPRLLIYGASSRATGIPDRFSGSGSGTDFTLTISRLEPEDFAVYYCQQYDNYPPTFGGGTKVEIK", "T cell MFI": 561}
{"BINDER": "C-90 (antibody, V domains shown, human IgG1) VH: EVQLVESGGGLVQPGGSLRLSCAASGFTFSSYWMSWVRQAPGKGLEWVANINQDGSEKYYVDSVKGRFTISRDNAKNSLYLQMNSLRAEDTAVYYCAREAGAVTGYRWFDPWGQGTLVTVSS VL: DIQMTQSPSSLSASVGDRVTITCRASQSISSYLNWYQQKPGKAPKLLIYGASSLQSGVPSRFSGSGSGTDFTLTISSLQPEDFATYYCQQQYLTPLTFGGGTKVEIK", "T cell MFI": 329}
{"BINDER": "C-61 (antibody, V domains shown, human IgG1) VH: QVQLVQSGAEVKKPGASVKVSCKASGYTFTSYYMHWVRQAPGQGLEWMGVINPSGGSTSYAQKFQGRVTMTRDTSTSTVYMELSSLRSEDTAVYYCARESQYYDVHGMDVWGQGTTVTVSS VL: EIVLTQSPGTLSLSPGERATLSCRASQSVSSSYLAWYQQKPGQAPRLLIYGASSRATGIPDRFSGSGSGTDFTLTISRLEPEDFAVYYCQQYYGLPLTFGGGTKVEIK", "T cell MFI": 242}

Input line: Sample C-36 (antibody, V domains shown, human IgG1) VH: EVQLVESGGGLVQPGGSLRLSCAASGFTFSSYWMSWVRQAPGKGLEWVANIKQDGSEKYYVDSVKGRFTISRDNAKNSLYLQMNSLRAEDTAVYYCARDGQYYPAYGMDVWGQGTTVTVSS VL: EIVMTQSPATLSVSPGERATLSCRASQSVSSNLAWYQQKPGQAPRLLIYGASTRATGIPARFSGSGSGTEFTLTISSLQSEDFAVYYCQQYFDLPTFGGGTKVEIK — what was its T cell MFI?
Output line: 228

Input line: Returns the measured T cell MFI for the input binder. Input: C-75 (antibody, V domains shown, human IgG1) VH: EVQLLESGGGLVQPGGSLRLSCAASGFTFSSYAMSWVRQAPGKGLEWVSAISASGGSTYYADSVKGRFTISRDNSKNTLYLQMNSLRAEDTAVYYCARLHMTGTASSGMDVWGQGTTVTVSS VL: DIVMTQSPDSLAVSLGERATINCKSSQSVLYSSNNKNYLAWYQQKPGQAPRLLIYGASSRATGIPDRFSGSGSGTDFTLTISRLEPEDFAVYYCQQDYSSPLTFGGGTKVEIK
Output line: 399
